Listed below: self-cleavage kobs at 160 uM GlcN6P values for each entry.
B1: glmS ribozyme (parent)
chain: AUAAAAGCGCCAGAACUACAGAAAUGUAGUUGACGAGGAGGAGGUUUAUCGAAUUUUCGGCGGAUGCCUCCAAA

- Variants of: B1
- TEST PROTOCOL: self-cleavage kobs at 160 uM GlcN6P; higher = faster cleavage; RNA array
- STUDY CONDITIONS: with glucosamine-6-phosphate
Fewer inactive variants are shown than the library holds.

{"columns": ["SEQUENCE CODE", "self-cleavage kobs at 160 uM GlcN6P"],
 "data": [
  ["AUAAAAGCGCCAGAAAUACAGAAAUGUAGUUGACGAGGAGGGGGUUUAUCGAAUUUUCGGCGGAUGCCUCCAAA [C16A A42G]", "0.000111 s⁻¹"],
  ["AUAAAAGCGCCAGAACUACAGAAAUGUAGUUCACGAGGCGGAGGAUUAUCGAAUUGUCGGCGGAUGCCUCCAAA [G32C A39C U45A U56G]", "< 1e-05 s⁻¹"],
  ["AUAAAAGCGCCAGAACUACAGAAAUGUAGUUGACGAGGAGGAGGUUUAUCGGAUUUUCGGCGGAUGCCUCUAAA [A52G C71U]", "7.83e-05 s⁻¹"],
  ["AUAAAAGCGCCAGGAUUACAGAAAUGUAGUUGACGAGGAGGAGGGUUAUCGAAUUUUCGGCGGAUGUCUCCAAA [A14G C16U U45G C67U]", "0.000132 s⁻¹"],
  ["AUAAAAGCGCCAGAACUACAGAAAUGUAGUUGACGAGGAGGAGGUUUAUCGAAGUUUCGGCGGAUUCCUCCAAA [U54G G66U]", "0.000183 s⁻¹"]
]}

Return the recorded self-cleavage kobs at 160 uM GlcN6P value; entry: AUAAAAGCGCCAGACCUACAGAAAUGUAGUUGACGAGGGGGAGGUUUAUCGAAUUGUCGGGGGAUGCCUCCAAA [A15C A39G U56G C61G] < 1e-05 s⁻¹

Return the recorded self-cleavage kobs at 160 uM GlcN6P value; entry: AUAAAAGCACCAGAACUACAGAAAUGUAGUUGACGAGGAGGAGGUUUAUCGAAUUUUCGGCGGAGGCCUCGAAA [G9A U65G C71G] < 1e-05 s⁻¹

Return the recorded self-cleavage kobs at 160 uM GlcN6P value; entry: AUAAAAGCGUCUGAACUACAGAAAUGUAGUUGACGAGGAGGAGAUUUACCGAAUUUUCGGCGGAUGCCUGCAAA [C10U A12U G44A U49C C70G] < 1e-05 s⁻¹

Return the recorded self-cleavage kobs at 160 uM GlcN6P value; entry: AUAAAAGCGCCAGAACUACAGAAAUGUAGUUGACGGGGAGGAGGUUUAUCGAAUUUUCGGCGGAGGCCUCCAAA [A36G U65G] < 1e-05 s⁻¹

Return the recorded self-cleavage kobs at 160 uM GlcN6P value; entry: AUAAAAGCGCCAGAACUACAGAAAUGUAGUAGACGAGGACGAGGUUUAUCGAAUUUUCGGCGGAUGCCUCCAAA [U31A G40C] 0.000105 s⁻¹
